tested on: 5-HT4R; assay type: cell-based, human; settings: Gαs; 5-HT4R wt; read-out: EC50, G protein activation
Readout label: pEC50
Numbers only, as −log10 of the molar value.

Prompt: Tell me the measured pEC50 of NCCc1c[nH]c2ccc(O)cc12 [5-HT] , please.
Response: 8.55

###

target: KOR (Homo sapiens); experiment: Competition binding with 3H-JDTic in the absence or presence of 5 µM Nb6 or Nb39; conditions: read-out: Ki ± SEM
Readout label: pKi
Numbers only, as −log10 of the molar value.

Prompt: Tell me the measured pKi of "NC(=O)c1ccc(Oc2ccc(CN3CCC[C@H]3c3cccnc3)cc2)c(F)c1" , please.
Response: 8.47
